# Target System: Metabotropic glutamate receptor 1 (Homo sapiens, UniProt Q13255)
# Sequence (Q13255 whole entry): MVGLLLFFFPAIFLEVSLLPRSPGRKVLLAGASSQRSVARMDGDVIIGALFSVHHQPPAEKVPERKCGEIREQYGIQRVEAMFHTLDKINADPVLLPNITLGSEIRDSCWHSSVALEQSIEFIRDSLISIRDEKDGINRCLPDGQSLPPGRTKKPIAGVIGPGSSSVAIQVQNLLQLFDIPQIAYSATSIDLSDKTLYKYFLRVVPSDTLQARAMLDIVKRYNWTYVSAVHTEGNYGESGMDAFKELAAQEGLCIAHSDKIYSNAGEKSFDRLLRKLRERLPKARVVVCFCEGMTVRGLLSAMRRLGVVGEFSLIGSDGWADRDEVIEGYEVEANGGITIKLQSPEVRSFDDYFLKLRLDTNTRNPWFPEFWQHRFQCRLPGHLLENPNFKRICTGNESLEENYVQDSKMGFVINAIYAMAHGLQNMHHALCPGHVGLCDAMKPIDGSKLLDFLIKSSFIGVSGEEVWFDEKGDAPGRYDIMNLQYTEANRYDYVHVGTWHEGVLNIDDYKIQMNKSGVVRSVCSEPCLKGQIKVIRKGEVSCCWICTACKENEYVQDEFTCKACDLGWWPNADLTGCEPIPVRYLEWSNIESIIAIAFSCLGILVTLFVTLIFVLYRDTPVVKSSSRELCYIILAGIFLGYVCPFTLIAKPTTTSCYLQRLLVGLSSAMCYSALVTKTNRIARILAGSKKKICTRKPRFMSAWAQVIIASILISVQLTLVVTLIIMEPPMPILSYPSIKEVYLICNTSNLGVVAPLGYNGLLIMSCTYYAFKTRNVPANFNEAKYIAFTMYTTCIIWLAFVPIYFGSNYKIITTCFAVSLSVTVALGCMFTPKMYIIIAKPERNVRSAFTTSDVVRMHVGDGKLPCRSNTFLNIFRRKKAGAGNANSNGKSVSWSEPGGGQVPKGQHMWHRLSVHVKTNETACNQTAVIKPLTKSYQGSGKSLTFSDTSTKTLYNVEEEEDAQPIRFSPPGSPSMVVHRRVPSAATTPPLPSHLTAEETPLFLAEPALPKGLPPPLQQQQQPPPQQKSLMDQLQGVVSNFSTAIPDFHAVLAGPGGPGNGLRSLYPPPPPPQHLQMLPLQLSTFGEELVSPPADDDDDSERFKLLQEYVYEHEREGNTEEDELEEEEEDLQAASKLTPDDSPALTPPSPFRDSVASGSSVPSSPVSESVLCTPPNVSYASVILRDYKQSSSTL
# Test Protocol: Antagonist activity at human mGluR1
Entries and their measured IC50 follow.
Reported Metric: IC50

> print(dat)
                            chemical.smiles  reported.metric     result
1  C#CCN(C)c1ccnc2sc3c(=O)n(-c4ccc(OC)cc4)cnc3c12             IC50  0.0108 µM
2  C=C(C)CNc1ncnc2sc3c(=O)n(-c4ccc(Br)cc4)cnc3c12             IC50  0.0145 µM
3  C#CCNc1ncnc2sc3c(=O)n(-c4ccc5ncsc5c4)cnc3c12             IC50   0.209 µM
4  C=C(C)CNc1ncnc2sc3c(=O)n(-c4ccncc4)cnc3c12             IC50   0.955 µM
5  C=C(C)CNc1ncnc2sc3c(=O)n(-c4ccccc4)cnc3c12             IC50  0.0046 µM
6  C=C(C)CNc1ccnc2sc3c(=O)n(-c4ccc(Br)cc4)cnc3c12             IC50   0.043 µM
